tested on: AVEFA; test: Post-emergence herbicidal action against AVEFA; format: in vivo, Avena fatua; details: 20 g/ha, visual assessment about 3 weeks after treatment, 100% = plants have died, 0% = like control plants
Measured metric: Post-emergence action at 20 g/ha against AVEFA in % (%)
State the answer as a number, implicitly in %.

API: value(readout=Post-emergence action at 20 g/ha against AVEFA in %, system=AVEFA) for record CCn1nnnc1NC(=O)c1ccc(I)c(C(=O)NC)c1Cl
80

API: value(readout=Post-emergence action at 20 g/ha against AVEFA in %, system=AVEFA) for record CCCn1nnnc1NC(=O)c1ccc(C(F)(F)F)c(C(=O)NC(C)=O)c1Cl
80

API: value(readout=Post-emergence action at 20 g/ha against AVEFA in %, system=AVEFA) for record CCCn1nnnc1NC(=O)c1ccc(C(F)(F)F)c(C(=O)NCC)c1Br
80

---

system: VIOTR; assay: Post-emergence herbicidal action against VIOTR; type: in vivo, Viola tricolor; details: Viola tricolor, 504 h, 20 g/ha
Measured metric: pest or weed control at 20 g/ha (%)
State the answer as a number, implicitly in %.

Return reported pest or weed control at 20 g/ha; argument: Cn1nnnc1NC(=O)c1ccc(Cl)c(C(=O)NC2CC2)c1Br [Example 1-351]
80

Return reported pest or weed control at 20 g/ha; argument: CNC(=O)c1c(C(F)(F)F)ccc(C(=O)Nc2nnnn2C)c1Br [Example 1-207]
100

Return reported pest or weed control at 20 g/ha; argument: CCNC(=O)c1c(C(F)(F)F)ccc(C(=O)Nc2nnnn2CC)c1SC [Example 2-82]
80

Return reported pest or weed control at 20 g/ha; argument: COc1c(C(=O)Nc2nnnn2C)ccc(C(F)(F)F)c1C(=O)NC1CC1 [Example 1-58]
100

Return reported pest or weed control at 20 g/ha; argument: CCn1nnnc1NC(=O)c1ccc(Cl)c(C(=O)NC2CC2)c1Cl [Example 2-173]
100

Return reported pest or weed control at 20 g/ha; argument: CCn1nnnc1NC(=O)c1ccc(C(F)F)c(C(=O)NC(C)C)c1C [Example 2-345]
90

Return reported pest or weed control at 20 g/ha; argument: CCCNC(=O)c1c(C(F)(F)F)ccc(C(=O)Nc2nnnn2C)c1C [Example 1-32]
80

Return reported pest or weed control at 20 g/ha; argument: CCn1nnnc1NC(=O)c1ccc(C(F)(F)F)c(C(=O)NC)c1Br [Example 2-207]
100

Return reported pest or weed control at 20 g/ha; argument: CCNC(=O)c1c(Br)ccc(C(=O)Nc2nnnn2CC)c1Br [Example 2-342]
80

Return reported pest or weed control at 20 g/ha; argument: CCNC(=O)c1c(C(F)F)ccc(C(=O)Nc2nnnn2C)c1CC [Example 1-278]
90

Return reported pest or weed control at 20 g/ha; argument: CCNC(=O)c1c(C(F)(F)F)ccc(C(=O)Nc2nnnn2C)c1CC [Example 1-272]
90

---

I'd appreciate it if you could supply Pre-emergence action against VIOTR in % values for the items below.
system: VIOTR; experiment: Pre-emergence herbicidal action against VIOTR; assay type: in vivo, Viola tricolor; details: dosage 80 g/ha

Return reported Pre-emergence action against VIOTR in %; argument: CCc1c(C(=O)Nc2nnnn2C)ccc(C(F)(F)F)c1C(=O)NCC(F)F [Example 1-276]
100%

Return reported Pre-emergence action against VIOTR in %; argument: CCn1nnnc1NC(=O)c1ccc(I)c(C(=O)NC)c1Cl [Example 2-195]
100%

Return reported Pre-emergence action against VIOTR in %; argument: CCn1nnnc1NC(=O)c1ccc(C(F)F)c(C(=O)NC(C)C2CC2)c1SC (centres unmarked) [Example 2-351]
100%

Return reported Pre-emergence action against VIOTR in %; argument: Cc1nnc(NC(=O)c2ccc(C(F)F)c(C(=O)NC(C)C3CC3)c2C)o1 (centres unmarked) [Example 6-258]
80%

Return reported Pre-emergence action against VIOTR in %; argument: CCn1nnnc1NC(=O)c1ccc(C(F)F)c(C(=O)NCC2CC2)c1SC [Example 2-90]
100%

Return reported Pre-emergence action against VIOTR in %; argument: CCn1nnnc1NC(=O)c1ccc(C(F)F)c(C(=O)NCC(=O)N(C)C)c1Cl [Example 2-160]
100%

Return reported Pre-emergence action against VIOTR in %; argument: COCCNC(=O)c1c(C(F)F)ccc(C(=O)Nc2nnnn2C)c1C [Example 1-347]
80%

Return reported Pre-emergence action against VIOTR in %; argument: Cc1nnc(NC(=O)c2ccc(C(F)F)c(C(=O)NC3CC3)c2Br)o1 [Example 6-166]
100%
